Each recorded value in this set is attributed to patent US20180355061A1.

Readings of koff for the listed binders
- STUDY_SYSTEM: T1, human PD-1 (soluble analyte in SPR) (human, UniProt Q15116 25-170, limits assumed)
- T1 construct: also called CD279; PDCD1
- T1 sequence (Q15116 25-170 limits assumed): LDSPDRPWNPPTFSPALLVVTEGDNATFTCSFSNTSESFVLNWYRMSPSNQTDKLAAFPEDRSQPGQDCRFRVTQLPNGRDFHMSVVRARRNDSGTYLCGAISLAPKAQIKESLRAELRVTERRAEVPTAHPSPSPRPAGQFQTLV
- PROTOCOL_DESCRIPTION: SPR (ProteOn XPR36), mAb captured on anti-human IgG Fc, human PD-1 as analyte, 25 C
OBSERVATION_TYPE: koff (s⁻¹)

BINDER	MEASURED
PD1B1088 (antibody, human IgG1, kappa, V domains shown, also called VH PD1H405; VL PD1L651) VH: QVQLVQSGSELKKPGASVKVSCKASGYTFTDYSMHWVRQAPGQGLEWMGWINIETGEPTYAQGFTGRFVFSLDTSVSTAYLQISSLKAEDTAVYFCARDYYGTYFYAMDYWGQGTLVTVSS VL: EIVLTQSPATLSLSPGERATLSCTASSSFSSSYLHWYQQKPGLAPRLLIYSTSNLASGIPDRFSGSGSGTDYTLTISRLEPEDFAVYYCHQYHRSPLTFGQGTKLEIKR	0.000341
PD1B1086 (antibody, human IgG1, kappa, V domains shown, also called VH PD1H586; VL PD1L469) VH: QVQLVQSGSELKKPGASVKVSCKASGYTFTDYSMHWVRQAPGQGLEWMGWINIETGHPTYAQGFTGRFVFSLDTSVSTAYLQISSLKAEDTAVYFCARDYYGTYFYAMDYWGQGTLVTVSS VL: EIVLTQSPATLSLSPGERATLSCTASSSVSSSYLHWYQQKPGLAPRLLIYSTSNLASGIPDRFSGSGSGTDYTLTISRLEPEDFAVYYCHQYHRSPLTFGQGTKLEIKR	0.000394
PD1B1090 (antibody, human IgG1, kappa, V domains shown, also called VH PD1H585; VL PD1L651) VH: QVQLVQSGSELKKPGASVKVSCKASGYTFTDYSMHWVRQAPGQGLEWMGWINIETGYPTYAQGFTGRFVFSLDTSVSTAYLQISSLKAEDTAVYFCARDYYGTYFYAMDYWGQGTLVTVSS VL: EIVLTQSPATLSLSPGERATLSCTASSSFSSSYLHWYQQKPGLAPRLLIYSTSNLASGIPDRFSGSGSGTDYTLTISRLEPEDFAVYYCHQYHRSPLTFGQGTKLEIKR	2.37e-05
PD1B1087 (antibody, human IgG1, kappa, V domains shown, also called VH PD1H587; VL PD1L469) VH: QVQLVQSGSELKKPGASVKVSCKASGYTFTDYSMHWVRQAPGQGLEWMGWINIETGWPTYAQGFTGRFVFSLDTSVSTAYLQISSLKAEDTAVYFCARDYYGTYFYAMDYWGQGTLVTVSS VL: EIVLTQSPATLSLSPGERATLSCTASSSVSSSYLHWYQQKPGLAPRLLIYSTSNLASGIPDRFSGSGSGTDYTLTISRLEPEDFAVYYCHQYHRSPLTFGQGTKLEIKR	0.000239
PD1B1091 (antibody, human IgG1, kappa, V domains shown, also called VH PD1H586; VL PD1L651) VH: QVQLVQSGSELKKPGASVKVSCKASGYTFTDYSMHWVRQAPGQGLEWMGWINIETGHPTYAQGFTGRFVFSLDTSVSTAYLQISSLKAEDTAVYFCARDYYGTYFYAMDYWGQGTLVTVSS VL: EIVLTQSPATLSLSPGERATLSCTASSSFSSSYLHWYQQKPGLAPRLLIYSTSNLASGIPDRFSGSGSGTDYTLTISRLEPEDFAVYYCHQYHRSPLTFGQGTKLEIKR	6.44e-05
PD1B1095 (antibody, human IgG1, kappa, V domains shown, also called VH PD1H587; VL PD1L652) VH: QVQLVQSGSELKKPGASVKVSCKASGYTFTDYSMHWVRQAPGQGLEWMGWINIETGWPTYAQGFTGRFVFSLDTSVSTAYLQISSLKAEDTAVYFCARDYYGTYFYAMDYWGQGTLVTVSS VL: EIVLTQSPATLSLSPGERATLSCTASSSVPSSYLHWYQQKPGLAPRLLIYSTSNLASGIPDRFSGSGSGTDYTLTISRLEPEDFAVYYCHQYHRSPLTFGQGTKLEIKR	7.12e-05
PD1B1085 (antibody, human IgG1, kappa, V domains shown, also called VH PD1H585; VL PD1L469) VH: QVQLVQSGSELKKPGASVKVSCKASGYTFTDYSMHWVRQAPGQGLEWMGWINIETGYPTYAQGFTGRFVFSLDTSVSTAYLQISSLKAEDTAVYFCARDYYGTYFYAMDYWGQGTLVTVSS VL: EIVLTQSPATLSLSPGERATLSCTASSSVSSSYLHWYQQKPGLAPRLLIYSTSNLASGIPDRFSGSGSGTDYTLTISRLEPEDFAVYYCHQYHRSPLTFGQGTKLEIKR	0.000142
PD1B1092 (antibody, human IgG1, kappa, V domains shown, also called VH PD1H587; VL PD1L651) VH: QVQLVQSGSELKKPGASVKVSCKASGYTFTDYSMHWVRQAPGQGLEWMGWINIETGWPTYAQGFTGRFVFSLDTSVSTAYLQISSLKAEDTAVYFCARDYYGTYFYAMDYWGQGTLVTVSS VL: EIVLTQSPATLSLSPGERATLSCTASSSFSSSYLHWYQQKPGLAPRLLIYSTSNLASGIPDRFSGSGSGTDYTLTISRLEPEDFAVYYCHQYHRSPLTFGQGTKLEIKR	3e-05
PD1B1093 (antibody, human IgG1, kappa, V domains shown, also called VH PD1H585; VL PD1L652) VH: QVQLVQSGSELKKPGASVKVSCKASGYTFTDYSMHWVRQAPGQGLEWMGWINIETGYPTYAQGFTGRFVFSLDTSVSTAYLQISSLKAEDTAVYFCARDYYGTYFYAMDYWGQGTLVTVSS VL: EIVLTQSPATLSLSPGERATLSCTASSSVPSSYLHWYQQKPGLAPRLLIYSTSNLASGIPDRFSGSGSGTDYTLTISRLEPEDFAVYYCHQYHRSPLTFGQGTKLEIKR	4.36e-05
PD1B1089 (antibody, human IgG1, kappa, V domains shown, also called VH PD1H405; VL PD1L652) VH: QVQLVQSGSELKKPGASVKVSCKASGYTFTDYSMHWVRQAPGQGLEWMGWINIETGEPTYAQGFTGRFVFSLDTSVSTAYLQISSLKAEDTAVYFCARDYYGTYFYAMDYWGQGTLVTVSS VL: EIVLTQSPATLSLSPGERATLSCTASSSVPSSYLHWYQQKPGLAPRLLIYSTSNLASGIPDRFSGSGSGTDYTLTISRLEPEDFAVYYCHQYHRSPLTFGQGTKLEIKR	0.000474
PD1B1094 (antibody, human IgG1, kappa, V domains shown, also called VH PD1H586; VL PD1L652) VH: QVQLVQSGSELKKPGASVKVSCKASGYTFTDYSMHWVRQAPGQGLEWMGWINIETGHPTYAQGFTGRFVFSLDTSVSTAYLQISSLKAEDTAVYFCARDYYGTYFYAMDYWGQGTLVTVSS VL: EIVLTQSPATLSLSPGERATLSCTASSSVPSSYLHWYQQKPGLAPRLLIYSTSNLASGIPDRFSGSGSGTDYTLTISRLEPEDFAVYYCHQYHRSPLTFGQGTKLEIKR	9.16e-05
